Form field: Ki (one value per entry).
tgt: Furin (Homo sapiens, UniProt P09958)
Sequence (P09958 whole entry): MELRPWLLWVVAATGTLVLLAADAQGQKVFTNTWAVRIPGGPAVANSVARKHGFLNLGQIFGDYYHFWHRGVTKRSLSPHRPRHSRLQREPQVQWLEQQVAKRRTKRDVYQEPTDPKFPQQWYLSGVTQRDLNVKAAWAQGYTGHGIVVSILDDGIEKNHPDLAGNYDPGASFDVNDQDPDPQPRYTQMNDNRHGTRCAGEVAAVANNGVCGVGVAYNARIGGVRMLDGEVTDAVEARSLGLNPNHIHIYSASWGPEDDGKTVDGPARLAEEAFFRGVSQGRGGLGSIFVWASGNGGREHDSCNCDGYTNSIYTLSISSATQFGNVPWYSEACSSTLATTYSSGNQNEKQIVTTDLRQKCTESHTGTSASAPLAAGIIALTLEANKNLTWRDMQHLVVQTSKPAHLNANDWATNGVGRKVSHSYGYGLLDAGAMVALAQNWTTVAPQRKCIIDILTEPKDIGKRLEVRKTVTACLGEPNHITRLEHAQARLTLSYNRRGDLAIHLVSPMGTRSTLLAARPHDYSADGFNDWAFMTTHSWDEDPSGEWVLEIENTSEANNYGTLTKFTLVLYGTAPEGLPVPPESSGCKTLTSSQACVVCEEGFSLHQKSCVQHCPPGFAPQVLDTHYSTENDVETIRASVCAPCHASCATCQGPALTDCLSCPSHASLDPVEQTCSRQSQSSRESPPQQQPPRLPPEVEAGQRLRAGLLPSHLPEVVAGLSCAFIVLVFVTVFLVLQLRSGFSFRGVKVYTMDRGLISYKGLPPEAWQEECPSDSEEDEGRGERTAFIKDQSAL
assayText: Inhibition of recombinant human furin expressed in CHO cells using pyroGlu- Arg-Thr-Lys-Arg-AMC as the substrate after 30 mins
# output: bare number, implied unit nM

Reference set (3 entries):
NC(N)=NCCC[C@H](NC(=O)[C@@H](CCCN=C(N)N)NC(=O)Cc1ccccc1)C(=O)O :: 3200
CC(C)[C@H](NC(=O)Cc1ccccc1)C(=O)N[C@H](CCCN=C(N)N)C(=O)N[C@@H](CCCN=C(N)N)C(=O)NCc1ccc(C(=N)N)cc1 :: 7340
N=C(N)c1ccc(CNC(=O)[C@H](CCCCN)NC(=O)[C@H](CN)NC(=O)[C@H](CCCN=C(N)N)NC(=O)Cc2ccccc2)cc1 :: 3.7

Consider the record given below.
Query: Reported Ki, molecule `CC(C)[C@H](NC(=O)[C@H](CCCN=C(N)N)NC(=O)Cc1ccccc1)C(=O)N[C@@H](CCCCN)C(=O)NCc1ccc(C(=N)N)cc1` : ____
Reply: 1.5
